These entries and their values trace back to paper PMC9482650.

target: PTPN3, P26045; experiment: holdup assay; parameters: key: below the threshold = too weak to quantify, mostly under pKd 3.1 to 4; conditions: plain residues with an end cap or a label only (N-terminal biotin on a linker: ttds)
Sequence (P26045 505-587): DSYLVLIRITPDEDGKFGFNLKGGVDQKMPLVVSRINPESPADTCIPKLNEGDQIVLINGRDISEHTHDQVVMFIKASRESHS
observed property: pKd
Give bare numbers.

INSERT INTO results (binder, reported_measurement) VALUES
  ('SRSRRRETAL [HPV33-E6, P06427]', 5.01),
  ('FVETQHQTQV [FAT3, Q8TDW7]', 4.12);

May I ask what pKd has been recorded for GRLLGLETNV [ARHGEF26, Q96DR7] ? 4.69
